experimentalDetails: chemical genetic growth profiling, strain panel (AID 1159580);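 further: tested at 20 µM; growth read once vehicle control cultures reached saturation at 30 °C; 1 = growth at the plate median or of vehicle wells; lower values mean less growth of the strain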
testConditions: S. cerevisiae deletion strains, growth OD, locus YNL128W, strain TEP1, hits give low values
Out of some 5,500 compounds screened, about 2,000 (36%) were called active. About 18% were inconclusive and are not listed. Some of the results follow.
Overview of reported normalized growth across a group of compounds:
// print number alone

Fill in the blank: the reported normalized growth of CNC(=O)Oc1ccccc1OC(C)C is ____.
1.02

###

experimentalDetails: chemical genetic growth profiling, strain panel (AID 1159580);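 further: tested at 20 µM; growth read once vehicle control cultures reached saturation at 30 °C; 1 = growth at the plate median or of vehicle wells; lower values mean less growth of the strain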
testConditions: S. cerevisiae deletion strains, growth OD, locus YLR384C, strain iki3, hits give low values
Hit rate of the full screen: of about 5,500 compounds, about 2,000 (36%) were called active. Another 18% or so got no clear call; they are omitted. The list shows a part of the results.
# normalized growth values compiled below
Respond numerically, and do not add a unit to the figure.

// solved cases for normalized growth follow
| compound | measuredNumber |
| --- | --- |
| NS(=O)(=O)c1cc2c(cc1Cl)NCNS2(=O)=O | 0.996 |
| O=C(/C=C/c1ccccc1)c1ccc(O[C@@H]2O[C@H](CO)[C@@H](O)[C@H](O)[C@H]2O)cc1O | 0.907 |
| CCCC(=O)Nc1ccc(OCC(O)CNC(C)C)c(C(C)=O)c1 (stereo unspecified) | 1.01 |

In the following, a different compound is considered.
Entry CN1CCC[C@H]1c1cccnc1 : reported normalized growth = ?
1.04

###

experimentalDetails: chemical genetic growth profiling, strain panel (AID 1159580);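 further: tested at 20 µM; growth read once vehicle control cultures reached saturation at 30 °C; 1 = growth at the plate median or of vehicle wells; lower values mean less growth of the strain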
testConditions: S. cerevisiae deletion strains, growth OD, locus YDR195W, strain ref2
About 2,000 (36%) of roughly 5,500 compounds were called active. About 18% were inconclusive and are not listed. Cut-off read from the data, not from the text of the source: active = normalized growth mostly below about 0.91 (no sharp cut-off); inconclusive = no clear call, values can overlap the other calls; inactive = mostly above about 0.92. The list shows a part of the results.
Outcome (select one): t = active, f = inactive

| compound | categoryLabel |
| --- | --- |
| COC(=O)C[C@H]1C(C)(C)[C@@H](OC(C)=O)[C@@H]2CC3=C4CC(=O)O[C@@H](c5ccoc5)[C@]4(C)CCC3[C@@]1(C)C2=O (stereo partly drawn) | f |

Query: recorded result category for O=C(O)C1=C(CSc2nnnn2CS(=O)(=O)O)CS[C@@H]2C(NC(=O)[C@H](O)c3ccccc3)C(=O)N12 (stereo partly drawn) in this test
f

Just curious, what result did CC(=O)NS(=O)(=O)c1ccc(N)cc1 get here?
f

Status in this test for CCC1(C2=NCCN2)Cc2ccccc2O1 (stereo not drawn) ?
f

###

experimentalDetails: chemical genetic growth profiling, strain panel (AID 1159580);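 further: tested at 20 µM; growth read once vehicle control cultures reached saturation at 30 °C; 1 = growth at the plate median or of vehicle wells; lower values mean less growth of the strain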
testConditions: S. cerevisiae deletion strains, growth OD, locus YGL240W, strain doc1
In all, about 5,500 compounds went through this assay and about 2,000 (36%) were called active. Inconclusive results (about 18%) are left out. No stated cut-off is given here; in the data, active means normalized growth mostly below about 0.91 (no sharp cut-off); inconclusive means no clear call, values can overlap the other calls; inactive means mostly above about 0.92. This is one part of the list.
Valid outcomes are listed here; reply with one: active, inactive

| compound | categoryLabel |
| --- | --- |
| O=C(Nc1ccc([N+](=O)[O-])cc1Cl)c1cc(Cl)ccc1O | active |
| CC(=O)O[C@H]1CC2CCC3C(CC[C@@]4(C)C3C[C@H]([N+]3(C)CCCCC3)[C@@H]4OC(C)=O)[C@@]2(C)C[C@@H]1N1CCCCC1 (stereo partly specified) | inactive |
| CC(C)[C@@H]1CC[C@@H](C)C[C@H]1OC(=O)c1ccccc1 | inactive |
| Cn1c(=O)c2c(ncn2C)n(C)c1=O | inactive |
| Cc1cc2nc3c(=O)[nH]c(=O)nc-3n(CC(O)C(O)C(O)CO)c2cc1C (stereo unspecified) | inactive |
| C=CC[C@@H]1/C=C(\C)C[C@H](C)C[C@H](OC)[C@H]2O[C@@](O)(C(=O)C(=O)N3CCCC[C@H]3C(=O)O[C@H](/C(C)=C/[C@@H]3CC[C@@H](O)[C@H](OC)C3)[C@H](C)[C@@H](O)CC1=O)[C@H](C)C[C@@H]2OC | inactive |
| COc1ccc(-c2c(O)c3c(OC)c4c(cc3oc2=O)OC(C)(C)C=C4)cc1 | inactive |
| COc1cc([C@@H]2c3cc4c(cc3[C@H](O)[C@H]3COC(=O)[C@H]23)OCO4)cc(OC)c1OC | inactive |

For COc1ccccc1OCC(O)COC(N)=O (stereo unspecified) , what call appears in the results of this test?
inactive

Which outcome was assigned to O=C1C=CC(=O)c2ccccc21 in this test?
active

Which outcome was entered for the compound C/C(=C\CO)CC[C@H](C)CCC[C@H](C)CCCC(C)C in this test?
active
